molecular target: full-length recombinant human FYN A (Homo sapiens (Human), UniProt P06241); assay: ADP-Glo Kinase Assay of FYN kinase inhibition; format: biochemical; details: primary screen, initial compounds
Sequence (P06241 whole entry): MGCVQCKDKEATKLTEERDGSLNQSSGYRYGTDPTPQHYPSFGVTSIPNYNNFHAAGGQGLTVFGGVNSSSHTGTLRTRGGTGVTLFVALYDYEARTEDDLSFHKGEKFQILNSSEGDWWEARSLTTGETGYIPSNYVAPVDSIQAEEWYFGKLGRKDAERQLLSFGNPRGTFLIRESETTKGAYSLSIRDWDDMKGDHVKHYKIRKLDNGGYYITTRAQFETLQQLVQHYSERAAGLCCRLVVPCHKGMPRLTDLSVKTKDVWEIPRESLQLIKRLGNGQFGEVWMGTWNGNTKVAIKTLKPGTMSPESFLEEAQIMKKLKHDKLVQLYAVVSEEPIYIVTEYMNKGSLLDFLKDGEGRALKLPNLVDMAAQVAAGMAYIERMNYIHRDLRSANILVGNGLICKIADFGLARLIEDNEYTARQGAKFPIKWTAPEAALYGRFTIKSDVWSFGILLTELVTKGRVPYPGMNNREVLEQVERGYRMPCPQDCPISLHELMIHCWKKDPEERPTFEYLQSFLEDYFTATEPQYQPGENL
Listed compounds paired with reported pIC50
pIC50 here: minus log base 10 of the concentration, concentration in moles per litre.

>  <Compound>
COCOc1ccc(-c2cc(-c3cccc(CO)c3)cnc2N)cc1 [382_0341_0291]

>  <Experimental system>
full-length recombinant human FYN A (Homo sapiens (Human), UniProt P06241)

>  <pIC50>
5.34

$$$$
>  <Compound>
NC(=O)c1ccc(-c2ccc3ncc(-c4cccc(CO)c4)n3n2)cc1 [Compound 296]

>  <Experimental system>
full-length recombinant human FYN A (Homo sapiens (Human), UniProt P06241)

>  <pIC50>
5.72

$$$$
>  <Compound>
CCC(CO)Nc1cncc(-c2ccc(N)cc2)n1 (stereo not shown) [035_0153_0333]

>  <Experimental system>
full-length recombinant human FYN A (Homo sapiens (Human), UniProt P06241)

>  <pIC50>
4.68

$$$$
>  <Compound>
OCc1ccc(-c2ccc3ncc(-c4cccnc4)n3n2)cc1 [Compound 361]

>  <Experimental system>
full-length recombinant human FYN A (Homo sapiens (Human), UniProt P06241)

>  <pIC50>
5.54

$$$$
>  <Compound>
COc1ccccc1-c1cnn2ccc(NCc3cccnc3)nc12 [294_4003_0083]

>  <Experimental system>
full-length recombinant human FYN A (Homo sapiens (Human), UniProt P06241)

>  <pIC50>
5.91

$$$$

### Prompt Which pIC50 is reported for this compound? NC1=C(c2nc3ccccc3[nH]2)C(=O)CN1c1ccc2c(c1)OCO2 [Compound 594]
### Response 5.39

### Prompt For the compound shown here, Oc1cccc(-c2cnc3cnc(-c4ccccc4)cn23)c1 [Compound 204] , give the reported pIC50.
### Response 5.18

----------
IC50 listing for selected compounds.
Molecular target: full-length recombinant human FYN A (Homo sapiens (Human))
Assay: ADP-Glo Kinase Assay of FYN kinase inhibition
Format: biochemical
Settings: primary screen, initial compounds
Excerpt: The chemical library was comprised of the SoftFocus ATP-competitive hinge binding compounds described by Harris, C. J., Hill, R. D., Sheppard, D. W., et al., The Design and Application of Target-Focused Compound Libraries. Combinatorial Chemistry and High Throughput Screening 14:521-31 (2011). […]
Note: unit µM is implicit; provide only the numeric part.

>  <Compound>
Nc1ccc(-c2cnc3ccc(NCc4cccs4)nn23)cc1 [229_0146_0333]

>  <IC50 (µM)>
5.42

$$$$
>  <Compound>
COc1cc(-c2cc(-c3cccc(NS(C)(=O)=O)c3)cnc2N)cc(OC)c1OC [382_0087_6488]

>  <IC50 (µM)>
0.525

$$$$
>  <Compound>
CCC(CO)Nc1ccc2ncc(-c3cc(OC)c(OC)c(OC)c3)n2n1 (stereo not shown) [229_0153_0087]

>  <IC50 (µM)>
1.28

$$$$
>  <Compound>
Oc1cccc(-c2cnc3ccc(-c4cccc(F)c4)nn23)c1 [Compound 392]

>  <IC50 (µM)>
2.26

$$$$
>  <Compound>
CN(C)CCNC(=O)c1ccc(-c2cn3c(-c4cccs4)cnc3cn2)cc1 [388_4147_0327]

>  <IC50 (µM)>
8.52

$$$$

### Prompt Field request: IC50 | item: COc1cc(-c2cnc3ccc(Cc4ccc(F)cc4)nn23)ccc1O [Compound 480]
### Response 2.09

### Prompt Given the compound CNc1cncc(-c2ccc3[nH]ccc3c2)n1 [Compound 445_0204] , what is its reported IC50?
### Response 14.9

### Prompt Data request, read-out IC50, for CC(=O)Nc1cccc(-c2ccc3ncc(-c4ccccc4)n3n2)c1 [Compound 339]
### Response 3.66

### Prompt Please give the measured IC50 for this compound: CCCNc1ccc2ncc(-c3cccc(O)c3)n2n1 [229_0226_0284]
### Response 0.93

### Prompt Could you tell me which IC50 is on file for CC(=O)c1ccc(-c2cnc3sc(NCCN4CCOCC4)nn23)s1 [Compound 564] ?
### Response 3

### Prompt Query (compound): Cn1cc(-c2ccc3ncc(-c4ccncc4)n3n2)cn1 [Compound 447] ; field requested: IC50
### Response 30

### Prompt IC50 lookup needed for OCc1ccc(-c2ccc3ncc(-c4cccs4)n3n2)cc1 [Compound 378] , thanks.
### Response 2.36

### Prompt IC50 lookup needed for Nc1cccc(-c2ccc3ncc(-c4ccc5c(c4)OCO5)n3n2)c1 [Compound 430] , thanks.
### Response 0.843

### Prompt I have this compound here, CCCNc1ccc2ncc(-c3ccc4c(c3)OCO4)n2n1 [229_0226_0068] , and I need its recorded IC50.
### Response 2.05
